// data source = ChEMBL document CHEMBL4819069

Biological target: Amyloid-beta precursor protein (Homo sapiens) (UniProt P05067)
Sequence (P05067 whole entry): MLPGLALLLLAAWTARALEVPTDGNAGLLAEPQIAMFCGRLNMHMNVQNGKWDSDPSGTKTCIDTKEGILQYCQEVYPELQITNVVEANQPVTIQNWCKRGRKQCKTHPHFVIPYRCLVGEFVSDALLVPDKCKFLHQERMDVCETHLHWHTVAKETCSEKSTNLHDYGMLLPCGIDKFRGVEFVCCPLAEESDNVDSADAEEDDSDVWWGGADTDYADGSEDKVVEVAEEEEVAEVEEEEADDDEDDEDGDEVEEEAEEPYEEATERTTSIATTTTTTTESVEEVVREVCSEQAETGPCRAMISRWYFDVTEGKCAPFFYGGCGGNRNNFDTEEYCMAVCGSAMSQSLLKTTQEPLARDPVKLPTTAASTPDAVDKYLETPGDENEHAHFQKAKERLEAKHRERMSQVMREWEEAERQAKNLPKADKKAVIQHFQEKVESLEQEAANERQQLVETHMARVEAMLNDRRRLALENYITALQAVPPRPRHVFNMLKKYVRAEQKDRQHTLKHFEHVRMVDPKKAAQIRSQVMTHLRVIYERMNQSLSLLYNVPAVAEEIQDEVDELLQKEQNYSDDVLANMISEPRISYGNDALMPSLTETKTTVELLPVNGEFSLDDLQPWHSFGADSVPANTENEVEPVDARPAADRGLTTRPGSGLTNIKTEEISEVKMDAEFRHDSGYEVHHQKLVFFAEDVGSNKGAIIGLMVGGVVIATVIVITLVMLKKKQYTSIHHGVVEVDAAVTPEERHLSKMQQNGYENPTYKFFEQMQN
Assay: Inhibition of HFIP-pretreated amyloid beta (1 to 42) (unknown origin) aggregation at 10 uM after 36 to 48 hrs by thioflavin-T fluorescence assay relative to control
Settings: time 36-48 hrs
Entries and their inhibition values follow.

Consider the reported inhibition for these compounds:
CC(C)(C)NC[C@H](O)[C@H](Cc1ccccc1)NC(=O)C(c1ccccc1)c1ccccc1	20.5%
O=C(CC(c1ccccc1)c1ccccc1)N[C@@H](Cc1ccccc1)[C@@H](O)CNCc1ccccc1	20.5%
O=C(CC(c1ccccc1)c1ccccc1)N[C@@H](Cc1ccccc1)[C@@H](O)CNCc1cccc(C(F)(F)F)c1	20.5%
CC(C)(C)CNC[C@@H](O)[C@H](Cc1ccccc1)NCC(c1ccccc1)c1ccccc1	34.7%

Exercise: # input compound: `COc1ccccc1CNC[C@H](O)[C@H](Cc1ccccc1)NC(=O)CC(c1ccccc1)c1ccccc1` ; wanted: its inhibition
Solution: 20.5%

====

Target: Cholinesterase (Homo sapiens)
Sequence (P06276 whole entry): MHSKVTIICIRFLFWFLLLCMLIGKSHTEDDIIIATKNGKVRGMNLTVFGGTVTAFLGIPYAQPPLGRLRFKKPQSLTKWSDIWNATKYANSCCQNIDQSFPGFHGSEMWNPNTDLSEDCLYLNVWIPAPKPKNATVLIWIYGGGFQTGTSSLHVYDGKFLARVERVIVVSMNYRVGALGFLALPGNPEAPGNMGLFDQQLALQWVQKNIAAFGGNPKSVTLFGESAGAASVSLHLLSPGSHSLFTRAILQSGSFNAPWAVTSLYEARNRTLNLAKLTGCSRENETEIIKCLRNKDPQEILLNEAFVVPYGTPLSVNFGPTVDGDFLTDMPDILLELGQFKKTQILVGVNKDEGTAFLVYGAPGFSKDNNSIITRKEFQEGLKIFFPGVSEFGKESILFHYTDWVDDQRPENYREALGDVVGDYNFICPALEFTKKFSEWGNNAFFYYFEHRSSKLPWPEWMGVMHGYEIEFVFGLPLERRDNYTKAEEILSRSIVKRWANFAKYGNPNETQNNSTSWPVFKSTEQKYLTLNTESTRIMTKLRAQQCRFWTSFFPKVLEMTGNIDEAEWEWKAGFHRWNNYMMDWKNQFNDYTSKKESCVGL
Test: Inhibition of human BuchE at 1 uM using butyrylthiocholine as substrate preincubated for 5 mins followed by substrate addition and measured after 5 mins by Ellman's method relative to control
Details: time 10.0 min
READOUT NAME: inhibition (%)
Value expressed in %; do not type the unit.

Exercise: # input compound: `O=C(N[C@@H](Cc1ccccc1)[C@@H](O)CNCc1ccccc1)C(c1ccccc1)c1ccccc1` ; wanted: its inhibition
Solution: 40.5

Exercise: # input compound: `C[C@H](NC[C@@H](O)[C@H](Cc1ccccc1)NC(=O)CC(c1ccccc1)c1ccccc1)c1ccccc1` ; wanted: its inhibition
Solution: 36.4

====

Target: Beta-secretase 1 (Homo sapiens)
Sequence (P56817 whole entry): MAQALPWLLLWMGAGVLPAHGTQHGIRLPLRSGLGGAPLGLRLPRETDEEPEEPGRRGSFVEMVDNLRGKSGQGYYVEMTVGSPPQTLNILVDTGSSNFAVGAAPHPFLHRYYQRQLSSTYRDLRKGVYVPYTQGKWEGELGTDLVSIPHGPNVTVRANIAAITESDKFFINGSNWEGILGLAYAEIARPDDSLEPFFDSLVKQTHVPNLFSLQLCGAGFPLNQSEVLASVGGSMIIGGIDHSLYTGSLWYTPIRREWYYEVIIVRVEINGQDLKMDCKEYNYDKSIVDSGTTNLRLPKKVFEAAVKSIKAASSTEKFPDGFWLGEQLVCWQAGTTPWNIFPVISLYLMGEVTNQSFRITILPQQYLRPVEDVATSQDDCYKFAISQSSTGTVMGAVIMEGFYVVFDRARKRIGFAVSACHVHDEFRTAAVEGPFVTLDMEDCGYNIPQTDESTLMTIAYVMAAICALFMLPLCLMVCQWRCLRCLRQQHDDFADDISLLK
Conditions: dose 50.0 µM, time 60.0 min
READOUT NAME: inhibition (%)
Value expressed in %; do not type the unit.

C[C@H](NC[C@@H](O)[C@H](Cc1ccccc1)NC(=O)C(c1ccccc1)c1ccccc1)c1ccccc1	61.7
CC(C)(C)NC[C@H](O)[C@H](Cc1ccccc1)NCCC(c1ccccc1)c1ccccc1	51.3

Exercise: Checklist item: inhibition tested on Beta-secretase 1 (Homo sapiens), entry `COc1cccc(CNC[C@@H](O)[C@H](Cc2ccccc2)NCCC(c2ccccc2)c2ccccc2)c1` , value?
Solution: 50.6
